# target.system: recombinant human Mcl-1 (residues 171-327) / Bim interaction (Homo sapiens (Human), UniProt Q07820)
# Sequence (Q07820 171-327): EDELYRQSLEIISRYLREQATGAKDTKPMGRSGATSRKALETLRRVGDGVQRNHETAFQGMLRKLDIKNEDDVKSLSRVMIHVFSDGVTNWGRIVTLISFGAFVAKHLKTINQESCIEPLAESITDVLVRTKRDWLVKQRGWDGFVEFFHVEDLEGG
# assay.protocol: biochemical
# Assay type: binding
# conditions.used: TR-FRET, Mcl-1(171-327) / biotin-Bim (51-76); read-out: Mcl-1 HTRF IC50
// returns no unless IC50 is strictly below 200 pM, in which case yes

// known answers, use as guide
# compound, classification
records = [
    ("CC[C@@H]1CCCC[C@](COC)(OC)[C@@H]2CC[C@H]2CN2C[C@@]3(CCCc4cc(Cl)ccc43)COc3ccc(cc32)C(=O)NS1(=O)=O [Example 100037]", "no"),
    ("CO[C@@]1(CC(=O)N2CCC2)/C=C/C[C@H](C)[C@@H](C)S(=O)(=O)NC(=O)c2ccc3c(c2)N(C[C@@H]2CC[C@H]21)C[C@@]1(CCCc2cc(Cl)ccc21)CO3 [Example 100006]", "yes"),
    ("CO[C@@]1(CC2=NCC(=O)O2)/C=C/C[C@H](C)[C@@H](C)S(=O)(=O)NC(=O)c2ccc3c(c2)N(C[C@@H]2CC[C@H]21)C[C@@]1(CCCc2cc(Cl)ccc21)CO3 [Example 100549]", "no"),
    ("CO[C@@]1(C#CCCO)/C=C/C[C@H](C)[C@@H](C)S(=O)(=O)NC(=O)c2ccc3c(c2)N(C[C@@H]2CC[C@H]21)C[C@@]1(CCCc2cc(Cl)ccc21)CO3 [Example 100427]", "no"),
    ("C=CCC[C@@]1(O)/C=C/C[C@H](C)[C@@H](C)S(=O)(=O)NC(=O)c2ccc3c(c2)N(C[C@@H]2CC[C@H]21)C[C@@]1(CCCc2cc(Cl)ccc21)CO3 [Example 100158]", "no"),
]

Q: Consider the compound CO[C@@]1(CSC(C)C)/C=C/C[C@H](C)[C@@H](C)S(=O)(=O)NC(=O)c2ccc3c(c2)N(C[C@@H]2CC[C@H]21)C[C@@]1(CCCc2cc(Cl)ccc21)CO3 [Example 100441] . Is its IC50 strictly less than 200 pM?
Result: yes

Q: Consider the compound COC[C@]1(OC)/C=C/C[C@H](C)[C@@H](C)S(=O)(=O)NC(=O)c2ccc3c(c2)N(C[C@@H]2CC[C@H]21)C[C@@]1(CCCc2cc(Cl)ccc21)CO3 [Example 100401] . Is its IC50 strictly less than 200 pM?
Result: no

Q: Consider the compound C[C@@H]1[C@@H](C)C/C=C/[C@@](O)(c2nccn2C)[C@@H]2CC[C@H]2CN2C[C@@]3(CCCc4cc(Cl)ccc43)COc3ccc(cc32)C(=O)NS1(=O)=O [Example 100199] . Is its IC50 strictly less than 200 pM?
Result: yes

Q: Consider the compound C[C@@H]1[C@@H](C)C[C@H]2CCC[C@](O)(C2)[C@@H]2CC[C@H]2CN2C[C@@]3(CCCc4cc(Cl)ccc43)COc3ccc(cc32)C(=O)NS1(=O)=O [Example 100062] . Is its IC50 strictly less than 200 pM?
Result: no

Q: Consider the compound C[C@@H]1[C@@H](C)C/C=C/[C@@](O)(c2ccncc2)[C@@H]2CC[C@H]2CN2C[C@@]3(CCCc4cc(Cl)ccc43)COc3ccc(cc32)C(=O)NS1(=O)=O (single isomer, unassigned) [Example 100392] . Is its IC50 strictly less than 200 pM?
Result: yes

Values from patent US10821115B2
